Data credit: patent US9249125B2

Consider compounds characterized by their log10(IC50) with Syk (Homo sapiens (Human), UniProt P43405).
On a log10 scale: recorded IC50, unit nM.

Sample records with log10(IC50):
[
  {
    "compound": "CC(C)(C)c1cc(NC(=O)Nc2ccc(Oc3ccnc(Nc4ccc5c(c4)C(=O)NC5)n3)c3ccccc23)n(-c2ccc(OCCN3CCOCC3)cc2)n1 [Example 63]",
    "log10(IC50)": 1.00
  },
  {
    "compound": "CC(C)(C)c1cc(NC(=O)Nc2ccc(Oc3ccnc(Nc4ccc5[nH]ncc5c4)n3)c3ccccc23)n(-c2ccc(=O)n(CCN3CCOCC3)c2)n1 [Example 88]",
    "log10(IC50)": 1.00
  },
  {
    "compound": "Cc1ccc(-n2nc(C(C)(C)C)cc2NC(=O)Nc2ccc(Oc3ccnc(Nc4ccc5ncn(C)c5c4)n3)c3ccccc23)cc1 [Example 31]",
    "log10(IC50)": 2.30
  },
  {
    "compound": "COc1ccc(-n2nc(C(C)C)cc2NC(=O)Nc2ccc(Oc3ccnc(Nc4cc(C)c5[nH]ncc5c4)n3)c3ccccc23)cc1 [Example 9]",
    "log10(IC50)": 0.85
  },
  {
    "compound": "COc1ccc(-n2nc(C(C)(C)C)cc2NC(=O)Nc2ccc(Oc3ccnc(Nc4ccc5c(cnn5CCN5CCOCC5)c4)n3)c3ccccc23)cc1 [Example 43]",
    "log10(IC50)": 1.32
  },
  {
    "compound": "COc1ccc(-n2nc(C(C)C)cc2NC(=O)Nc2ccc(Oc3cc(Nc4ccc5[nH]ncc5c4)ncn3)c3ccccc23)cc1 [Example 39]",
    "log10(IC50)": 1.59
  }
]

Reading of log10(IC50) for COc1ccc(-n2nc(C(C)(C)C)cc2NC(=O)Nc2ccc(Oc3ccnc(Nc4ccc5[nH]ccc5c4)n3)c3ccccc23)cc1 [Example 38] with Syk (Homo sapiens (Human), UniProt P43405): 1.41

Per the reported Syk (Homo sapiens (Human), UniProt P43405) data, COc1ccc(-n2nc(C(C)(C)C)cc2NC(=O)Nc2ccc(Oc3ccnc(Nc4ccc5c(cnn5C)c4)n3)c3ccccc23)cc1 [Example 41] has log10(IC50) of 1.91

Given the compound Cc1ccc(-n2nc(C(C)(C)C)cc2NC(=O)Nc2ccc(Oc3cc(Nc4ccc5[nH]ncc5c4)ncn3)c3ccccc23)cc1 [Example 23] and test system Syk (Homo sapiens (Human), UniProt P43405), the measured log10(IC50) is 1.76

Sample Cc1ccc(-n2nc(C(C)(C)C)cc2NC(=O)Nc2ccc(Oc3ccnc(Nc4cccc5[nH]ncc45)n3)c3ccccc23)cc1 [Example 21] , system: Syk (Homo sapiens (Human), UniProt P43405). Its log10(IC50) is 2.26

Bench note, Syk (Homo sapiens (Human), UniProt P43405): CC(C)(C)c1cc(NC(=O)Nc2ccc(Oc3ccnc(Nc4ccc5[nH]ncc5c4)n3)c3ccccc23)n(-c2cccc(OCCN3CCOCC3)c2)n1 [Example 54] , log10(IC50) reads 0.95

====

biological target: cSrc (Homo sapiens (Human), UniProt P12931)
Sequence (P12931 whole entry, looked up): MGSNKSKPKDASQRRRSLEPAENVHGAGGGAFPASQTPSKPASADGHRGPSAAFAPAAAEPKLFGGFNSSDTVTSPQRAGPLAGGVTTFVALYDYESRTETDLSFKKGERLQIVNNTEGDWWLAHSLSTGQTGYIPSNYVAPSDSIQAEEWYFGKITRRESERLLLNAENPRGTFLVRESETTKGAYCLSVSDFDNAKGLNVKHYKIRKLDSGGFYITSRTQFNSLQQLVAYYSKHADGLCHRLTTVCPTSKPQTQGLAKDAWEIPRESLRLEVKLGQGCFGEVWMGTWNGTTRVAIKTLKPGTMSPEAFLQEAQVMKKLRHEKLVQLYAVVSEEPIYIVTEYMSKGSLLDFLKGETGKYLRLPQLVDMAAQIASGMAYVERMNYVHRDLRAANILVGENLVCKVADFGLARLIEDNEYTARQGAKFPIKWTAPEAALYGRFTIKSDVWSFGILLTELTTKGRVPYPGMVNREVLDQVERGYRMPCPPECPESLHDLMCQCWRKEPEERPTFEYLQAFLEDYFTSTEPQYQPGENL
measured.quantity: pIC50
Convention used: pIC50 is expressed as -log10 of the molar concentration.

[
  {
    "molecule": "CC(C)(C)c1cc(NC(=O)Nc2ccc(Oc3cc(Nc4ccc5[nH]ncc5c4)ncn3)c3ccccc23)n(-c2ccc(=O)n(CCO)c2)n1 [Example 14]",
    "pIC50": 8.70
  },
  {
    "molecule": "Cc1ccc(-n2nc(C(C)(C)C)cc2NC(=O)Nc2ccc(Oc3ccnc(Nc4ccc5c(cnn5C)c4)n3)c3ccccc23)cc1 [Example 26]",
    "pIC50": 7.92
  },
  {
    "molecule": "CC(C)(C)c1cc(NC(=O)Nc2ccc(Oc3ccnc(Nc4ccc5[nH]nnc5c4)n3)c3ccccc23)n(-c2ccc(OCCN3CCOCC3)cc2)n1 [Example 81]",
    "pIC50": 8.30
  }
]

Switching to the query record.
// sample CC(C)(C)c1cc(NC(=O)Nc2ccc(Oc3ccnc(Nc4ccc5[nH]ncc5c4)n3)c3ccccc23)n(-c2cccc(CN3CCCC3=O)c2)n1 [Example 49] , its pIC50 was 8.30
